- Target entity: T1, human MSLN-R2-his protein (human, UniProt Q13421 391-486)
- T1 construct: it is put last here; also called human MSLN-R2 protein; hMSLN-R2-his; not shown: His tag
- T1 sequence (Q13421 other isoform, or with tags, fused parts or gaps): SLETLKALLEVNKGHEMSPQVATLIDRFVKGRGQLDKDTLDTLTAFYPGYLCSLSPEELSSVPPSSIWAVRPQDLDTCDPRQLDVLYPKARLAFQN
- Method description: ELISA on coated antigen, no antibody (blank, column 'none')
Value kind: OD450 (OD)
Give the quantity in OD, number only.

Example entries and their recorded answers appear below.
S009-F7.6.17 (antibody, human IgG1, kappa, V domains shown, Human-murine chimeric antibody, human IgG1 heavy and kappa light constant regions) VH: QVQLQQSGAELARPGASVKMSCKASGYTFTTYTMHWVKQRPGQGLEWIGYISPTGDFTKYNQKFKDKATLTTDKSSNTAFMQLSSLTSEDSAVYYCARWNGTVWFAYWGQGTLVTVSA VL: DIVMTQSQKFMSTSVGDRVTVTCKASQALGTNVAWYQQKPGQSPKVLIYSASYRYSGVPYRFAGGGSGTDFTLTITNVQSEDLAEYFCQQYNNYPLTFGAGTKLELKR : 0.06
S009-F7.25.19 (antibody, human IgG1, kappa, V domains shown, Human-murine chimeric antibody, human IgG1 heavy and kappa light constant regions) VH: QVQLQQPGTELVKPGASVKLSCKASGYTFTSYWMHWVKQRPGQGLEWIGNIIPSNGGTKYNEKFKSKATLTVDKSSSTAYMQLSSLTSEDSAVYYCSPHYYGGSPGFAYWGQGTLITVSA VL: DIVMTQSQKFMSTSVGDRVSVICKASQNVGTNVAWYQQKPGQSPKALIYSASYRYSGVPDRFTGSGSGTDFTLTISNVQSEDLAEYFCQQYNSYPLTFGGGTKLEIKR : 0.06
S009-F7.33.24 (antibody, human IgG1, kappa, V domains shown, Human-murine chimeric antibody, human IgG1 heavy and kappa light constant regions) VH: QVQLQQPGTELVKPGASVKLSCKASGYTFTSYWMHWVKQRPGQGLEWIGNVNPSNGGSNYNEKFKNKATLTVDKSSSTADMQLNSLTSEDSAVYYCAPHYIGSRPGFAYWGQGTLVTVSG VL: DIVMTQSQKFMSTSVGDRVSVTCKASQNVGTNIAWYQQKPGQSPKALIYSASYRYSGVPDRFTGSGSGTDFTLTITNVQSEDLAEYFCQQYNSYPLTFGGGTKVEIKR : 0.07
S009-F7.67.12 (antibody, human IgG1, kappa, V domains shown, Human-murine chimeric antibody, human IgG1 heavy and kappa light constant regions) VH: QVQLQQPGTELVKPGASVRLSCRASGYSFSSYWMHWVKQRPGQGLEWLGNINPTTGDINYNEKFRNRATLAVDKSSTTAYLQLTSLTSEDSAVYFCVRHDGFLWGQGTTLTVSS VL: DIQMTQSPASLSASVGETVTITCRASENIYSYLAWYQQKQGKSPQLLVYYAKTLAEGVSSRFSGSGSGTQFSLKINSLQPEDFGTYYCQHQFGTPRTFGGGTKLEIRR : 0.06

Next, consider the following binder.
Summary for this binder, S009-F7.12.13 (antibody, human IgG1, kappa, V domains shown, Human-murine chimeric antibody, human IgG1 heavy and kappa light constant regions) VH: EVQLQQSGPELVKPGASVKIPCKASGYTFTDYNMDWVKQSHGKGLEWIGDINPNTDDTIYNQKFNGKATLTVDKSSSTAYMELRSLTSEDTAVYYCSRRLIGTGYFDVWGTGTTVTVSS VL: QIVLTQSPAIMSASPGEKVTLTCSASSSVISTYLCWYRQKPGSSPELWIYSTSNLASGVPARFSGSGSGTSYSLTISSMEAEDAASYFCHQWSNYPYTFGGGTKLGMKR : OD450 is 0.06
